assay: molar heat capacity at constant pressure; conditions: 323.15 K; 101.33 kPa; Liquid; Small sample (50 mg) DSC
MEASURED METRIC: molar heat capacity at constant pressure (J/K/mol)

1) CCC(O)CO (stereo not given) [1,2-butanediol] | 244.23
2) CO [methanol] | 87.03
3) CC(O)CCO (stereo not given) [1,3-butanediol] | 234.86
4) OCCCCO [1,4-butanediol] | 218.54
5) CC(O)C(C)O (stereo not given) [2,3-butanediol] | 250.18
